These data points were gathered from patent US20250101098A1.

# SYSTEM UNDER TEST: T1, recombinant human Nectin-4-His protein (human, UniProt Q96NY8 32-349)
# T1 construct: Rescreening antigen and bought ELISA antigen are treated as one molecule; also called human Nectin-4-His tagged; Ag1; not shown: His tag
# T1 sequence: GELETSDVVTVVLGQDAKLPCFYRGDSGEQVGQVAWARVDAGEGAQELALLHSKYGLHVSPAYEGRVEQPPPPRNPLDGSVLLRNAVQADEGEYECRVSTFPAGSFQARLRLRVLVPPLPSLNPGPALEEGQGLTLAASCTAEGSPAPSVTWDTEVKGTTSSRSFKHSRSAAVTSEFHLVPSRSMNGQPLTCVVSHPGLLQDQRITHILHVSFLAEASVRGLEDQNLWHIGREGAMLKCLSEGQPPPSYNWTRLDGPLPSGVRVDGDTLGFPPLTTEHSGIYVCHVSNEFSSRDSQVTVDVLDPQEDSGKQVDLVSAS
# ASSAY COMMENT: ELISA, recombinant antibody on coated antigen
OBSERVABLE: EC50 (nM)
Could you give me the number in nM? Just the number is fine.

Output measured EC50 for this item: Nectin-4 12E11H/12E11L (recombinant chimeric antibody) (antibody, V domains shown, also called parental 12E11 clone) VH: QVQLKQSGPGLVQPSQSLSITCTVSGFSLTTYGVHWVRQSPGKGLEWLGVIWSGGSTDCNGAFISRLSIIKDNSKSQVFFKMNSLQADDTAIYYCARMTHWYFDVWGTGTTVTVSS VL: DIVMTQSQKFMSTTVGDRVSITCKASQNVNTAVAWYQQKPGQSPKLLIYSASYRYTGVPDRFTGSGSGTDFTLTISNMQSEDLADYFCQQYSNYPLTFGAGTKLELK
0.252

Output measured EC50 for this item: Nectin-4 7H10H/7H10L (recombinant chimeric antibody) (antibody, V domains shown) VH: QVQLQQPGAELVKPGASVKLSCKASGYTFTTYWMHWVKQRPGRGLEWIGGIDPYGAHIKYNEMFKTKATLTVDKPSSTAYMQLSSLTSEDSAVYYCARGDYSNWWWTYWGQGTLVTVSA VL: DIVMTQSQKFMSTTVGDRVSITCKASQNVGTAVAWYQQIPGQSPKLLIYSASNRYTGVPDRFTGSGSGTDFTLTITNMQSEDLADYFCQHYSSYPWTFGGGTKLEIK
0.21

Output measured EC50 for this item: Nectin-4 Hybridoma 6C8H/6C8L (recombinant chimeric antibody) (antibody, V domains shown) VH: QVQLKQSGPGLVQPSQSLSITCTVSGFSLSTYGVHWVRQSPGKGLEWLGVIWSGGSTDYNAAFISRLTISKDNSKSQIFFKMNSLQADDTAIYYCARMMSWYFDVWGTGTTVTVSS VL: DIVMTQSQKFMSTSVGDRVSVTCKASQNVVTNVAWYQQKPGQSPKALIYSASYRYSGVPDRFTGSGSGTDFTLTISNVQSEDLAEYFCQQYNSYPLTFGAGTKLELK
0.239
